System: Klebsiella pneumoniae
assay_details: antibacterial activity in vitro, agar dilution method
Type: cell-based
measurement_setup: Table 4
value_type: MIC
Answer with the value and then the unit.

Record excerpt, results attached:
>>> result("CN(C)c1cc(CN2CCC3CCCCC3C2)c(O)c2c1CC1CC3[C@H](N(C)C)C(O)=C(C(N)=O)C(=O)[C@@]3(O)C(O)=C1C2=O (stereo partly drawn) [Compound c, reference compound]")
"16 µg/mL"
>>> result("CN(C)c1cc(CN2CC3CC(C3)C2)c(O)c2c1C[C@H]1C[C@H]3[C@H](N(C)C)C(O)=C(C(N)=O)C(=O)[C@@]3(O)C(O)=C1C2=O")
"2 µg/mL"

Challenge: Could you tell me which MIC is on file for CN(C)c1cc(CN2CC3CCCC3C2)c(O)c2c1C[C@H]1C[C@H]3[C@H](N(C)C)C(O)=C(C(N)=O)C(=O)[C@@]3(O)C(O)=C1C2=O (stereo partly drawn) ?
Response given: 2 µg/mL

###

System: Methicillin-resistant Staphycoccus epidermidis (MRSE)
assay_details: antibacterial activity in vitro, agar dilution method
Format: cell-based
measurement_setup: Staphylococcus epidermidis, Table 3
value_type: MIC (mg/L)
One number for each entry, in mg/L.

Record excerpt, results attached:
>>> recorded_number("CN(C)c1cc(CN2CC3(C2)CC(F)(F)C3)c(O)c2c1C[C@H]1C[C@H]3[C@H](N(C)C)C(O)=C(C(N)=O)C(=O)[C@@]3(O)C(O)=C1C2=O")
0.5
>>> recorded_number("CN(C)c1cc(CN2CC(F)C2)c(O)c2c1C[C@H]1C[C@H]3[C@H](N(C)C)C(O)=C(C(N)=O)C(=O)[C@@]3(O)C(O)=C1C2=O")
0.5
>>> recorded_number("CN(C)c1cc(CN2CCC3(CCCC3)CC2)c(O)c2c1CC1CC3[C@H](N(C)C)C(O)=C(C(N)=O)C(=O)[C@@]3(O)C(O)=C1C2=O (stereo partly drawn) [Compound d, reference compound]")
2
>>> recorded_number("CN(C)c1cc(CN2CCC3(CC2)CC3)c(O)c2c1C[C@H]1C[C@H]3[C@H](N(C)C)C(O)=C(C(N)=O)C(=O)[C@@]3(O)C(O)=C1C2=O")
1

For each of the items listed, what is its MIC?
1. CN(C)c1cc(CN2CC3(CCC3)C2)c(O)c2c1C[C@H]1C[C@H]3[C@H](N(C)C)C(O)=C(C(N)=O)C(=O)[C@@]3(O)C(O)=C1C2=O
2. CN(C)c1cc(CN2CC(C)(C)C2)c(O)c2c1C[C@H]1C[C@H]3[C@H](N(C)C)C(O)=C(C(N)=O)C(=O)[C@@]3(O)C(O)=C1C2=O

Response given:
1: 0.5; 2: 1

###

Can you tell me MIC for the items I'm about to list?
System: Methicillin-resistant Staphylococcus aureus (MRSA)
assay_details: antibacterial activity in vitro, agar dilution method
Assay type: cell-based
measurement_setup: Table 2, agar dilution
Numbers only, in µg/mL.

Record excerpt, results attached:
>>> recorded_number("CN(C)c1cc(CNC2CC(F)(F)C2)c(O)c2c1C[C@H]1C[C@H]3[C@H](N(C)C)C(O)=C(C(N)=O)C(=O)[C@@]3(O)C(O)=C1C2=O [Compound 2]")
0.5
>>> recorded_number("CN(C)c1cc(CNCC2CC(F)(F)C2)c(O)c2c1C[C@H]1C[C@H]3[C@H](N(C)C)C(O)=C(C(N)=O)C(=O)[C@@]3(O)C(O)=C1C2=O [Compound 10]")
1

For each of the items listed, what is its MIC?
1. CN(C)c1cc(CNCC(C)(C)C)c(O)c2c1C[C@H]1C[C@H]3[C@H](N(C)C)C(O)=C(C(N)=O)C(=O)[C@@]3(O)C(O)=C1C2=O [PTK-0796, reference compound]
2. CN(C)c1cc(CNC2CC3(CC3)C2)c(O)c2c1C[C@H]1C[C@H]3[C@H](N(C)C)C(O)=C(C(N)=O)C(=O)[C@@]3(O)C(O)=C1C2=O [Compound 3]

Response given:
1. 0.5
2. 0.5

###

assay_details: in vivo pharmacokinetics experiment in rats (Test Example 2)
measurement_setup: male, SD, rat, plasma, iv, 5 mg/kg
value_type: half-life (min)
Numbers only, in min.

Challenge: Could you tell me which half-life is on file for CN(C)c1cc(CNC2CC(F)(F)C2)c(O)c2c1C[C@H]1C[C@H]3[C@H](N(C)C)C(O)=C(C(N)=O)C(=O)[C@@]3(O)C(O)=C1C2=O ?
Response given: 244

###

assay_details: in vivo
Set-up: species or system male SD rats
measurement_setup: male, SD, rat, iv, 5 mg/kg
value_type: Vd

>>> result("CN(C)c1cc(CN2CC3CC3C2)c(O)c2c1C[C@H]1C[C@H]3[C@H](N(C)C)C(O)=C(C(N)=O)C(=O)[C@@]3(O)C(O)=C1C2=O (stereo partly shown)")
"5 L/kg"
>>> result("CN(C)c1cc(CN2CC3(CCC3)C2)c(O)c2c1C[C@H]1C[C@H]3[C@H](N(C)C)C(O)=C(C(N)=O)C(=O)[C@@]3(O)C(O)=C1C2=O")
"4.65 L/kg"
>>> result("CN(C)c1cc(NC(=O)CNC(C)(C)C)c(O)c2c1C[C@H]1C[C@H]3[C@H](N(C)C)C(O)=C(C(N)=O)C(=O)[C@@]3(O)C(O)=C1C2=O")
"4.47 L/kg"

Challenge: Could you tell me which Vd is on file for CN(C)c1cc(CN2CCC3(CC2)CC3)c(O)c2c1C[C@H]1C[C@H]3[C@H](N(C)C)C(O)=C(C(N)=O)C(=O)[C@@]3(O)C(O)=C1C2=O ?
Response given: 2.22 L/kg

###

assay_details: in vivo pharmacokinetics experiment in rats (Test Example 2)
measurement_setup: male, SD, rat, plasma, po (gavage), 5 mg/kg
value_type: AUC(0-inf) (ng·h/mL)
Numbers only, in ng·h/mL.

Challenge: Could you tell me which AUC(0-inf) is on file for CN(C)c1cc(CNC2CC(F)(F)C2)c(O)c2c1C[C@H]1C[C@H]3[C@H](N(C)C)C(O)=C(C(N)=O)C(=O)[C@@]3(O)C(O)=C1C2=O ?
Response given: 777

###

Can you tell me MIC for the items I'm about to list?
System: Klebsiella pneumoniae
assay_details: antibacterial activity in vitro, agar dilution method
Assay type: cell-based
measurement_setup: Table 4
Excerpt: The antibacterial spectrum and in vitro antibacterial activity of the compound of the present invention Experimental method: the agar dilution method, with reference to Clinical And Laboratory Standards Institute. Methods for Dilution Antimicrobial Susceptibility Tests for Bacteria That Grow Aerobically; Approved Standard-Seventh Edition. CLSI Document M7-A7. Vol 26, no. 2, Wayne, Pa.: Clinical and Laboratory Standards Institute, 2006. […]
Answers are plain numbers, in µg/mL.

Record excerpt, results attached:
>>> recorded_number("CN(C)c1cc(CN2CC3CCCCC3C2)c(O)c2c1C[C@H]1C[C@H]3[C@H](N(C)C)C(O)=C(C(N)=O)C(=O)[C@@]3(O)C(O)=C1C2=O (stereo partly shown)")
4
>>> recorded_number("CN(C)c1cc(CN2CC3C(C2)C3(C)C)c(O)c2c1C[C@H]1C[C@H]3[C@H](N(C)C)C(O)=C(C(N)=O)C(=O)[C@@]3(O)C(O)=C1C2=O (stereo partly shown)")
4
>>> recorded_number("CN(C)c1cc(CN2CC3CC3C2)c(O)c2c1C[C@H]1C[C@H]3[C@H](N(C)C)C(O)=C(C(N)=O)C(=O)[C@@]3(O)C(O)=C1C2=O (stereo partly shown)")
1

Challenge: Could you tell me which MIC is on file for CN(C)c1cc(CNCC(C)(C)C)c(O)c2c1C[C@H]1C[C@H]3[C@H](N(C)C)C(O)=C(C(N)=O)C(=O)[C@@]3(O)C(O)=C1C2=O [PTK-0796, reference compound] ?
Response given: 8

###

assay_details: in vivo
Parameters: species or system male SD rats
measurement_setup: male, SD, rat, iv, 5 mg/kg
Protocol: Test animals: male SD rats, weighing 180-280 g, purchased from Beijing Vital River Laboratory Animal Technology Co., Ltd.; animal Certificate of Conformity: SCXK (Beijing) 2006-0009. Six rats were tested for each compound. the compounds of the present invention, prepared in accordance with the methods of above Examples, dissolved in physiological saline. tigecycline, dissolved in physiological saline. […] 100 μl of supernatant was taken and analyzed using LC-MS/MS. […]
Can you tell me half-life for the items I'm about to list?
One number for each entry, in min.

Record excerpt, results attached:
>>> recorded_number("CN(C)c1cc(CN2CC3CC3C2)c(O)c2c1C[C@H]1C[C@H]3[C@H](N(C)C)C(O)=C(C(N)=O)C(=O)[C@@]3(O)C(O)=C1C2=O (stereo partly shown) [Compound 23]")
596
>>> recorded_number("CN(C)c1cc(NC(=O)CNC(C)(C)C)c(O)c2c1C[C@H]1C[C@H]3[C@H](N(C)C)C(O)=C(C(N)=O)C(=O)[C@@]3(O)C(O)=C1C2=O [tigecycline]")
228
>>> recorded_number("CN(C)c1cc(CN2CC3(CCC3)C2)c(O)c2c1C[C@H]1C[C@H]3[C@H](N(C)C)C(O)=C(C(N)=O)C(=O)[C@@]3(O)C(O)=C1C2=O [Compound 9]")
351

Moving on to the next molecule.
Challenge: Could you tell me which half-life is on file for CN(C)c1cc(CN2CCC3(CC2)CC3)c(O)c2c1C[C@H]1C[C@H]3[C@H](N(C)C)C(O)=C(C(N)=O)C(=O)[C@@]3(O)C(O)=C1C2=O [Compound 20] ?
Response given: 299
